Tested on: T-47D spheroids with HUVEC/MSC, viability
run-description: Anticancer human tumor T-47D cell line growth inhibition [PI3K];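 also: spheroids exposed to agents for seven days before reading; percent of DMSO vehicle control luminescence so 100% = untreated growth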
run-parameters: second compound 1 µM; first compound 0.1 µM; active compounds read low
reported-endpoint: viability, T/C (%)
Response body: numeric value in %, unit text excluded.

Please fill in: viability, T/C reported for Cn1nccc1Nc1nccc(-c2ccn(C(CO)c3ccc(Cl)c(F)c3)c(=O)c2)n1 (stereo unspecified) + Cc1nc(NC(=O)N2CCCC2C(N)=O)sc1-c1ccnc(C(C)(C)C(F)(F)F)c1 = 92.7

Reported viability, T/C ( CC1(C)CCC(CN2CCN(c3ccc(C(=O)NS(=O)(=O)c4ccc(NCC5CCOCC5)c([N+](=O)[O-])c4)c(Oc4cnc5[nH]ccc5c4)c3)CC2)=C(c2ccc(Cl)cc2)C1 + COc1c(OCCCN2CCOCC2)ccc2c3n(c(=NC(=O)c4cnc(N)nc4)nc12)CCN3 ) = 6.49

Entry C#Cc1c(F)ccc2cc(O)cc(-c3ncc4c(N5CC6CCC(C5)N6)nc(OCC56CCCN5CC(F)C6)nc4c3F)c12 (stereo unspecified) + CC(Nc1ccc2c(c1)OCCn1cc(N3C(=O)OCC3C(F)F)nc1-2)C(N)=O — recorded viability, T/C = 55.3

In plain terms, CC(=O)c1c(C)c2cnc(Nc3ccc(N4CCNCC4)cn3)nc2n(C2CCCC2)c1=O + COc1c(OCCCN2CCOCC2)ccc2c3n(c(=NC(=O)c4cnc(N)nc4)nc12)CCN3 has a documented viability, T/C of 6.26

Record summary for CCN1CCN(Cc2ccc(Nc3ncc(F)c(-c4cc(F)c5nc(C)n(C(C)C)c5c4)n3)nc2)CC1 + CC(Nc1ncnc2nc[nH]c12)c1cc2cccc(Cl)c2c(=O)n1-c1ccccc1 : reported viability, T/C = 84.1

Looking up C=CC(=O)N1CCN(c2nc(=O)n(-c3c(C)ccnc3C(C)C)c3nc(-c4c(O)cccc4F)c(F)cc23)C(C)C1 (stereo unspecified) + CC(Nc1ncnc2nc[nH]c12)c1cc2cccc(Cl)c2c(=O)n1-c1ccccc1 , I found its viability, T/C recorded as 89.2

Memo: Cn1nccc1Nc1nccc(-c2ccn(C(CO)c3ccc(Cl)c(F)c3)c(=O)c2)n1 (stereo unspecified) + COc1c(OCCCN2CCOCC2)ccc2c3n(c(=NC(=O)c4cnc(N)nc4)nc12)CCN3 , reported viability, T/C: 6.31

# compound C[C@@H](NC(=O)c1ncnc(N)c1Cl)c1ncc(C(=O)Nc2cc(C(F)(F)F)c(Cl)cn2)s1 + CC(Nc1ncnc2nc[nH]c12)c1cc2cccc(Cl)c2c(=O)n1-c1ccccc1 ; its viability, T/C = 105

Sure, the documented viability, T/C for CC(C)n1nc(-c2ccc3oc(N)nc3c2)c2c(N)ncnc21 + Cc1nc(NC(=O)N2CCCC2C(N)=O)sc1-c1ccnc(C(C)(C)C(F)(F)F)c1 is 21.2

Short answer for Cn1nccc1Nc1nccc(-c2ccn(C(CO)c3ccc(Cl)c(F)c3)c(=O)c2)n1 (stereo unspecified) + CC(Nc1ccc2c(c1)OCCn1cc(N3C(=O)OCC3C(F)F)nc1-2)C(N)=O : viability, T/C was 60
